Target or test system: human MC3R (human, UniProt P41968 1-323)
Sequence (P41968 whole entry): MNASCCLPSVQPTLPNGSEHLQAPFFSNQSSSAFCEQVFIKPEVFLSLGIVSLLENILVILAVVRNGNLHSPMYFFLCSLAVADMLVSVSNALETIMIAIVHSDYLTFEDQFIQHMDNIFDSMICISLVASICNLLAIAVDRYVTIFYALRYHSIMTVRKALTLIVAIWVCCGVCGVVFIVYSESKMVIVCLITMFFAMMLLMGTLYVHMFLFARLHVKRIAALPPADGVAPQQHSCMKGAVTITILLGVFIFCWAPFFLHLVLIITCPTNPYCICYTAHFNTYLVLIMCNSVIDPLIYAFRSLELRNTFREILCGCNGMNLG
Procedure details: cell-based or functional assay
Non-standard residues stand in square brackets, D forms with d. Phe(4-F) = N[C@@H](Cc1ccc(F)cc1)C(=O)O; Nle = CCCC[C@H](N)C(=O)O
Record form. Attribute: MC3R selectivity (relative to MC4R). Fill in for each entry.
Hey, just send me the number, nothing else.

In: Name the recorded MC3R selectivity (relative to MC4R) for Ac-[Nle][dA]HFR[dW]DRAG-OH (SMILES CCCC[C@H](NC(C)=O)C(=O)N[C@H](C)C(=O)N[C@@H](Cc1c[nH]cn1)C(=O)N[C@@H](Cc1ccccc1)C(=O)N[C@@H](CCCNC(=N)N)C(=O)N[C@H](Cc1c[nH]c2ccccc12)C(=O)N[C@@H](CC(=O)O)C(=O)N[C@@H](CCCNC(=N)N)C(=O)N[C@@H](C)C(=O)NCC(=O)O) [CTX-1537] .
Out: 278

In: Name the recorded MC3R selectivity (relative to MC4R) for Ac-[Nle][dA]H[Phe(4-F)]R[dW]DRFG-OH (SMILES CCCC[C@H](NC(C)=O)C(=O)N[C@H](C)C(=O)N[C@@H](Cc1c[nH]cn1)C(=O)N[C@@H](Cc1ccc(F)cc1)C(=O)N[C@@H](CCCNC(=N)N)C(=O)N[C@H](Cc1c[nH]c2ccccc12)C(=O)N[C@@H](CC(=O)O)C(=O)N[C@@H](CCCNC(=N)N)C(=O)N[C@@H](Cc1ccccc1)C(=O)NCC(=O)O) [CTX-1518] .
Out: 1560

In: Name the recorded MC3R selectivity (relative to MC4R) for YVXAHFRWDRFG (Nle at 3; D-Ala at 4; D-Trp at 8; D-Arg at 10) [CTX-1126] .
Out: 43
